For each record, write down the corresponding pIC50.
- measuredOn: rNaV1.2 (Rattus norvegicus, UniProt P04775)
- assayNotes: Two-electrode voltage-clamp on Xenopus laevis oocytes expressing NaV1.2
Where a SMILES comes first, the peptide text is derived from it. Bridges are numbered along the chain shown (N, C = ends).
Give bare numbers, as −log10 of the molar value.

*Q* # query: pIC50 of entry C[C@@H]1NC(=O)[C@H](C)NC(=O)[C@H](Cc2c[nH]c3ccccc23)NC(=O)[C@H](CCCNC(=N)N)NC(=O)[C@H](CCCNC(=N)N)NC(=O)[C@@H](N)CSSC[C@@H](C(N)=O)NC(=O)[C@H](CCCNC(=N)N)NC(=O)[C@H](CC(N)=O)NC(=O)[C@H](Cc2c[nH]c3ccccc23)NC1=O [PnCS1[R6A], CRRWAAWNRC ^*] (H-CRRWAAWNRC-NH2; disulfide 1-10)
*A* 5.04

Now, please, on to the next molecule.
*Q* Tell me the measured pIC50 of C[C@@H]1NC(=O)[C@H](Cc2c[nH]c3ccccc23)NC(=O)[C@H](CCCNC(=N)N)NC(=O)[C@H](C)NC(=O)[C@@H](N)CSSC[C@@H](C(N)=O)NC(=O)[C@H](CCCNC(=N)N)NC(=O)[C@H](CC(N)=O)NC(=O)[C@H](Cc2c[nH]c3ccccc23)NC(=O)[C@H](CCCNC(=N)N)NC1=O [PnCS1[R2A], CARWARWNRC ^*] (H-CARWARWNRC-NH2; disulfide 1-10) , please.
*A* 5.54

---

- measuredOn: rNaV1.4 (Rattus norvegicus)
- Sequence (P15390 whole entry): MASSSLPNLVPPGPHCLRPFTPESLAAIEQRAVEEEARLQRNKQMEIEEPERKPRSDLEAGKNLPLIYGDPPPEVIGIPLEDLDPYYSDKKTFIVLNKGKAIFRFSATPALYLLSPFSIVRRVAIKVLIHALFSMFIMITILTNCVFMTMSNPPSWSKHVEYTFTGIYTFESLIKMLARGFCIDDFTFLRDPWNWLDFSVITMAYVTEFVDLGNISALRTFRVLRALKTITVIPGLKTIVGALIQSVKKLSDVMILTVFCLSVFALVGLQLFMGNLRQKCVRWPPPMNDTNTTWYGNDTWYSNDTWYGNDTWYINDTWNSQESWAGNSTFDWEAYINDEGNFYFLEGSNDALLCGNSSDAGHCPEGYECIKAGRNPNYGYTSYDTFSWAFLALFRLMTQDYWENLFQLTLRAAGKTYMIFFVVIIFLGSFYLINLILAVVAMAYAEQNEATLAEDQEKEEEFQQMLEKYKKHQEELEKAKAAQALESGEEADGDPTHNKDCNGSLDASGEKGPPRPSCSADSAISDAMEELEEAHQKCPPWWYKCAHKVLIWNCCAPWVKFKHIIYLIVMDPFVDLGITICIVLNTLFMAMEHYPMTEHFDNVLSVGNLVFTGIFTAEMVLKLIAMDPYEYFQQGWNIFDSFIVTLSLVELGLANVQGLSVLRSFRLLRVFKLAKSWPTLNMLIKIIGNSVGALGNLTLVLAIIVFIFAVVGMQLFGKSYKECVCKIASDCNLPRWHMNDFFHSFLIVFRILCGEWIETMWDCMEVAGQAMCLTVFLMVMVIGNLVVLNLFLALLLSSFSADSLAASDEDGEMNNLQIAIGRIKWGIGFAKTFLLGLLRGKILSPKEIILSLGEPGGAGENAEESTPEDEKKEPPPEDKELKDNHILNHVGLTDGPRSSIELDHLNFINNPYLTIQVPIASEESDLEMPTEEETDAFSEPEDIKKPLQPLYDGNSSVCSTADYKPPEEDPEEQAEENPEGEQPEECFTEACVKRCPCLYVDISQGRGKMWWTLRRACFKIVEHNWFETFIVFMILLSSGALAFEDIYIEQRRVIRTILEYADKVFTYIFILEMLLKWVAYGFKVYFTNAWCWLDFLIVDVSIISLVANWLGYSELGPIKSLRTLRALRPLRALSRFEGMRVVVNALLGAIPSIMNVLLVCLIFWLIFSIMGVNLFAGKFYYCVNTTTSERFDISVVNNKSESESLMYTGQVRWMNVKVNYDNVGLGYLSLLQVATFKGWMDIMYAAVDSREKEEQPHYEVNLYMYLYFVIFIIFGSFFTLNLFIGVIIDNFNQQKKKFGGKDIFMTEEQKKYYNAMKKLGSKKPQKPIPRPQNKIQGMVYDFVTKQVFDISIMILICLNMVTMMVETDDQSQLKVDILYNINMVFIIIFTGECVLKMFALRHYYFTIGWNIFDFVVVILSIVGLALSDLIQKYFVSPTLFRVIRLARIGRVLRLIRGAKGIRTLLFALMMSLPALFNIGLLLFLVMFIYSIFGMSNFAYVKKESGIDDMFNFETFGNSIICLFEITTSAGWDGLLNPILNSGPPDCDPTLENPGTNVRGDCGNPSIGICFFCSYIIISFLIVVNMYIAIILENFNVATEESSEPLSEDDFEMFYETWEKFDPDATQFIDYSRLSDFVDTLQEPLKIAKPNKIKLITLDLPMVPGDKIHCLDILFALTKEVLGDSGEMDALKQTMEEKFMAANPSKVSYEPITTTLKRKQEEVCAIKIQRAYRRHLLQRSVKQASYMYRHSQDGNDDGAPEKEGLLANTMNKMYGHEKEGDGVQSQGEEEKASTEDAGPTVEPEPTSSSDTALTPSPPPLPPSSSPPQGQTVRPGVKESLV
- Sequence (Q00954 19-218, further chain): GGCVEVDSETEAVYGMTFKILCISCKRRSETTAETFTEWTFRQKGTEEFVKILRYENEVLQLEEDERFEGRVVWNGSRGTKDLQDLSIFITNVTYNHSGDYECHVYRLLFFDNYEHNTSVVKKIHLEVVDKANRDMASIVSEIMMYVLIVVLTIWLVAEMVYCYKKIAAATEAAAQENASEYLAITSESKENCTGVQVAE
- assayNotes: Two-electrode voltage-clamp on Xenopus laevis oocytes expressing NaV1.4
- conditionDetails: read-out: Maximum % inhibition NaV1.4, peptide at 100 μM
Where a SMILES comes first, the peptide text is derived from it. Bridges are numbered along the chain shown (N, C = ends).
parameter: inhibition at 100 µM (%)
Give bare numbers, in %.

*Q* Return reported inhibition at 100 µM; argument: C[C@@H]1NC(=O)[C@H](Cc2c[nH]c3ccccc23)NC(=O)[C@H](CCCCN)NC(=O)[C@H](CCCNC(=N)N)NC(=O)[C@@H](N)CSSC[C@@H](C(N)=O)NC(=O)[C@H](CCCNC(=N)N)NC(=O)[C@H](CC(N)=O)NC(=O)[C@H](Cc2c[nH]c3ccccc23)NC(=O)[C@H](CCCNC(=N)N)NC1=O [PnCS1[R3K], CRKWARWNRC ^*] (H-CRKWARWNRC-NH2; disulfide 1-10)
*A* 92

Read the next record carefully.
*Q* Item under review: C[C@@H]1NC(=O)[C@H](Cc2c[nH]c3ccccc23)NC(=O)[C@H](C)NC(=O)[C@H](CCCNC(=N)N)NC(=O)[C@@H](N)CSSC[C@@H](C(N)=O)NC(=O)[C@H](CCCNC(=N)N)NC(=O)[C@H](CC(N)=O)NC(=O)[C@H](Cc2c[nH]c3ccccc23)NC(=O)[C@H](CCCNC(=N)N)NC1=O [PnCS1[R3A], CRAWARWNRC ^*] (H-CRAWARWNRC-NH2; disulfide 1-10) . Reported inhibition at 100 µM?
*A* 89

---

- measuredOn: hNaV1.5 (Homo sapiens)
- Sequence (Q14524 whole entry): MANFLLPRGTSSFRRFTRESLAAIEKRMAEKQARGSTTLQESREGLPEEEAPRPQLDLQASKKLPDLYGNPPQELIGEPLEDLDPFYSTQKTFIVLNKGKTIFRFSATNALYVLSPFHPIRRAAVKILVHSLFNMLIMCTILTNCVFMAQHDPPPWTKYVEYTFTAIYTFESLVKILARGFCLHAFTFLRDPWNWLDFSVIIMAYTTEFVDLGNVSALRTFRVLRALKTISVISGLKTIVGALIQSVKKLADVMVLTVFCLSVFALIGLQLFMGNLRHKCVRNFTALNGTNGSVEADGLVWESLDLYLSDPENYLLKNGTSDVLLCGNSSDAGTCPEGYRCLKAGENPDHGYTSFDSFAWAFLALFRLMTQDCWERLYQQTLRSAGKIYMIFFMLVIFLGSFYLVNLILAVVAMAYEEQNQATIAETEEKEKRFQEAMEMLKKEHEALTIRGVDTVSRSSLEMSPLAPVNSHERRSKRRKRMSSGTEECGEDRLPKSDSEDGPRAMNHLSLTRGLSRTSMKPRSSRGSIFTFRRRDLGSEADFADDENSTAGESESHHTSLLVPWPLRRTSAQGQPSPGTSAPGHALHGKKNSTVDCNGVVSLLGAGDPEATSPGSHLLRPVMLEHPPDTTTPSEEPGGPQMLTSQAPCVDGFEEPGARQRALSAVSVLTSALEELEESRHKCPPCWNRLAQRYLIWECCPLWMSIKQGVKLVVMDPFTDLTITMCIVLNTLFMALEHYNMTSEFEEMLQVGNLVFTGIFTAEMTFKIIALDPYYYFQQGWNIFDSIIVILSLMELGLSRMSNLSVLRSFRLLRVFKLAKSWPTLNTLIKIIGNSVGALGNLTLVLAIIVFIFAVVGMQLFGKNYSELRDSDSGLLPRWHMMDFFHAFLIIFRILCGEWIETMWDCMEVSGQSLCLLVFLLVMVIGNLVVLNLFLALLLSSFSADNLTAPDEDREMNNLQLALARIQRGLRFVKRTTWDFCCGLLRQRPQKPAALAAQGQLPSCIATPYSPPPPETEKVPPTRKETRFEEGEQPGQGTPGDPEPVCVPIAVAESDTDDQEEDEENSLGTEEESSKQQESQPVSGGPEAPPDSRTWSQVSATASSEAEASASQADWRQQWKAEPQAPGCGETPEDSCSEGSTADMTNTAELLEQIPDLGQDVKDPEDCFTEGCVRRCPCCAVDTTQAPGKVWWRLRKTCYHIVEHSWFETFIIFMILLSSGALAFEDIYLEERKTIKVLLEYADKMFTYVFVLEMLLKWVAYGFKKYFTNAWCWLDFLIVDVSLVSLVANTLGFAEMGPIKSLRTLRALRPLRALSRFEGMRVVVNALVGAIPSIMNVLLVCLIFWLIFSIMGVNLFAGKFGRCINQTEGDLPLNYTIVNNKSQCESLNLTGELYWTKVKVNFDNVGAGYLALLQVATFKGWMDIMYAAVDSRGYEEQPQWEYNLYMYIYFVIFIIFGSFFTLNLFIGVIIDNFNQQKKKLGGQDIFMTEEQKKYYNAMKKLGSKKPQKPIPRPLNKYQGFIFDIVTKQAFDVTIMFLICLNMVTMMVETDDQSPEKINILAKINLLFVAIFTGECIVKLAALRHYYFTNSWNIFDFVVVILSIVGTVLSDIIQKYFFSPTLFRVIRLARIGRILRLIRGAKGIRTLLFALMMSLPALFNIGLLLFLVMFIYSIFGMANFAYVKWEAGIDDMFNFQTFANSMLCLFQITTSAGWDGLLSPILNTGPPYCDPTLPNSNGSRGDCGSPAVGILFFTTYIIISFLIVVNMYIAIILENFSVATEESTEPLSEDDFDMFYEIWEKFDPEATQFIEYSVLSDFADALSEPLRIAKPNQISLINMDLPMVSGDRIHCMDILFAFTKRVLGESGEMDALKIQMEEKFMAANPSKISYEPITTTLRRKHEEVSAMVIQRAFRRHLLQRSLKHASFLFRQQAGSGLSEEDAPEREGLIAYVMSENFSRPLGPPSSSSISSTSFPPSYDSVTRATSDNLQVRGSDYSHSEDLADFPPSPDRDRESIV
- assayNotes: Two-electrode voltage-clamp on Xenopus laevis oocytes expressing NaV1.5
- conditionDetails: read-out: Maximum % inhibition NaV1.5
Where a SMILES comes first, the peptide text is derived from it. Bridges are numbered along the chain shown (N, C = ends).
parameter: inhibition at 100 µM (%)
One number for each entry, in %.

Would you please look over these solved cases?
*Q* Given the compound C[C@@H]1NC(=O)[C@H](Cc2c[nH]c3ccccc23)NC(=O)[C@H](CCCNC(=N)N)NC(=O)[C@H](CCC(=O)O)NC(=O)[C@@H](N)CSSC[C@@H](C(N)=O)NC(=O)[C@H](CCCNC(=N)N)NC(=O)[C@H](CC(N)=O)NC(=O)[C@H](Cc2c[nH]c3ccccc23)NC(=O)[C@H](CCCNC(=N)N)NC1=O [PnCS1[R2E], CERWARWNRC ^*] (H-CERWARWNRC-NH2; disulfide 1-10) , what is its reported inhibition at 100 µM?
*A* 27

*Q* Which inhibition at 100 µM value is on record for C[C@@H]1NC(=O)[C@H](Cc2c[nH]c3ccccc23)NC(=O)[C@H](CCCNC(=N)N)NC(=O)[C@H](CCCNC(=N)N)NC(=O)[C@@H](N)CSSC[C@@H](C(N)=O)NC(=O)[C@H](CCCNC(=N)N)NC(=O)[C@H](CC(N)=O)NC(=O)[C@H](Cc2c[nH]c3ccccc23)NC(=O)[C@H](CCC(=O)O)NC1=O [PnCS1[R6E], CRRWAEWNRC ^*] (H-CRRWAEWNRC-NH2; disulfide 1-10) ?
*A* 19

*Q* Bench note: what inhibition at 100 µM did C[C@@H]1NC(=O)[C@H](Cc2c[nH]c3ccccc23)NC(=O)[C@H](CCCNC(=N)N)NC(=O)[C@H](CCCNC(=N)N)NC(=O)[C@@H](N)CSSC[C@@H](C(N)=O)NC(=O)[C@H](CCCNC(=N)N)NC(=O)[C@H](CC(N)=O)NC(=O)[C@H](CCC(=O)O)NC(=O)[C@H](CCCNC(=N)N)NC1=O [PnCS1[W7E], CRRWARENRC ^*] (H-CRRWARENRC-NH2; disulfide 1-10) show?
*A* 33

*Q* Reported inhibition at 100 µM, compound C[C@@H]1NC(=O)[C@H](Cc2c[nH]c3ccccc23)NC(=O)[C@H](CCCNC(=N)N)NC(=O)[C@H](C)NC(=O)[C@@H](N)CSSC[C@@H](C(N)=O)NC(=O)[C@H](CCCNC(=N)N)NC(=O)[C@H](CC(N)=O)NC(=O)[C@H](Cc2c[nH]c3ccccc23)NC(=O)[C@H](CCCNC(=N)N)NC1=O [PnCS1[R2A], CARWARWNRC ^*] (H-CARWARWNRC-NH2; disulfide 1-10) : ____
*A* 68

*Q* Which inhibition at 100 µM is listed for C[C@@H]1NC(=O)[C@H](Cc2c[nH]c3ccccc23)NC(=O)[C@H](CCCNC(=N)N)NC(=O)[C@H](CCCNC(=N)N)NC(=O)[C@@H](N)CSSC[C@@H](C(=O)O)NC(=O)[C@H](CCCNC(=N)N)NC(=O)[C@H](CC(N)=O)NC(=O)[C@H](Cc2c[nH]c3ccccc23)NC(=O)[C@H](CCCNC(=N)N)NC1=O [PnCS1DeAm, CRRWARWNRC] (H-CRRWARWNRC-OH; disulfide 1-10) ?
*A* 10

List inhibition at 100 µM for every entry below, keeping the order given.
1. CC(=O)N[C@H]1CSSC[C@@H](C(N)=O)NC(=O)[C@H](CCCNC(=N)N)NC(=O)[C@H](CC(N)=O)NC(=O)[C@H](Cc2c[nH]c3ccccc23)NC(=O)[C@H](CCCNC(=N)N)NC(=O)[C@H](C)NC(=O)[C@H](Cc2c[nH]c3ccccc23)NC(=O)[C@H](CCCNC(=N)N)NC(=O)[C@H](CCCNC(=N)N)NC1=O [PnCS1AcAm, Ac-CRRWARWNRC ^*] (Ac-CRRWARWNRC-NH2; disulfide 1-10)
2. N=C(N)NCCC[C@@H]1NC(=O)[C@H](CC(N)=O)NC(=O)[C@H](Cc2c[nH]c3ccccc23)NC(=O)[C@H](CCCNC(=N)N)NC(=O)[C@H](CCC(=O)O)NC(=O)[C@H](Cc2c[nH]c3ccccc23)NC(=O)[C@H](CCCNC(=N)N)NC(=O)[C@H](CCCNC(=N)N)NC(=O)[C@@H](N)CSSC[C@@H](C(N)=O)NC1=O [PnCS1[A5E], CRRWERWNRC ^*] (H-CRRWERWNRC-NH2; disulfide 1-10)

*A*
0
73

---

- measuredOn: rNaV1.2 (Rattus norvegicus, UniProt P04775)
Where a SMILES comes first, the peptide text is derived from it. Bridges are numbered along the chain shown (N, C = ends).
Answer each item with its documented IC50.
One number for each entry, in µM.

*Q* State its IC50 on rNaV1.2 (Rattus norvegicus, UniProt P04775): C[C@@H]1NC(=O)[C@H](CC(N)=O)NC(=O)[C@H](Cc2c[nH]c3ccccc23)NC(=O)[C@H](CCCNC(=N)N)NC(=O)[C@H](C)NC(=O)[C@H](Cc2c[nH]c3ccccc23)NC(=O)[C@H](CCCNC(=N)N)NC(=O)[C@H](CCCNC(=N)N)NC(=O)[C@@H](N)CSSC[C@@H](C(N)=O)NC1=O [PnCS1[R9A], CRRWARWNAC ^*] (H-CRRWARWNAC-NH2; disulfide 1-10)
*A* 6.7

New cases:
*Q* Notebook entry, rNaV1.2 (Rattus norvegicus, UniProt P04775) assay: IC50 of C[C@@H]1NC(=O)[C@H](Cc2c[nH]c3ccccc23)NC(=O)[C@H](CCCNC(=N)N)NC(=O)[C@H](C)NC(=O)[C@H](Cc2c[nH]c3ccccc23)NC(=O)[C@H](CCCNC(=N)N)NC(=O)[C@H](CCCNC(=N)N)NC(=O)[C@@H](N)CSSC[C@@H](C(N)=O)NC(=O)[C@H](CCCNC(=N)N)NC1=O [PnCS1[N8A], CRRWARWARC ^*] (H-CRRWARWARC-NH2; disulfide 1-10) = ?
*A* 0.9

Cited source for all entries: paper PMC9116130
